# Target Entity: LOK (Homo sapiens, UniProt O94804)
# Sequence (O94804 whole entry, species assumed): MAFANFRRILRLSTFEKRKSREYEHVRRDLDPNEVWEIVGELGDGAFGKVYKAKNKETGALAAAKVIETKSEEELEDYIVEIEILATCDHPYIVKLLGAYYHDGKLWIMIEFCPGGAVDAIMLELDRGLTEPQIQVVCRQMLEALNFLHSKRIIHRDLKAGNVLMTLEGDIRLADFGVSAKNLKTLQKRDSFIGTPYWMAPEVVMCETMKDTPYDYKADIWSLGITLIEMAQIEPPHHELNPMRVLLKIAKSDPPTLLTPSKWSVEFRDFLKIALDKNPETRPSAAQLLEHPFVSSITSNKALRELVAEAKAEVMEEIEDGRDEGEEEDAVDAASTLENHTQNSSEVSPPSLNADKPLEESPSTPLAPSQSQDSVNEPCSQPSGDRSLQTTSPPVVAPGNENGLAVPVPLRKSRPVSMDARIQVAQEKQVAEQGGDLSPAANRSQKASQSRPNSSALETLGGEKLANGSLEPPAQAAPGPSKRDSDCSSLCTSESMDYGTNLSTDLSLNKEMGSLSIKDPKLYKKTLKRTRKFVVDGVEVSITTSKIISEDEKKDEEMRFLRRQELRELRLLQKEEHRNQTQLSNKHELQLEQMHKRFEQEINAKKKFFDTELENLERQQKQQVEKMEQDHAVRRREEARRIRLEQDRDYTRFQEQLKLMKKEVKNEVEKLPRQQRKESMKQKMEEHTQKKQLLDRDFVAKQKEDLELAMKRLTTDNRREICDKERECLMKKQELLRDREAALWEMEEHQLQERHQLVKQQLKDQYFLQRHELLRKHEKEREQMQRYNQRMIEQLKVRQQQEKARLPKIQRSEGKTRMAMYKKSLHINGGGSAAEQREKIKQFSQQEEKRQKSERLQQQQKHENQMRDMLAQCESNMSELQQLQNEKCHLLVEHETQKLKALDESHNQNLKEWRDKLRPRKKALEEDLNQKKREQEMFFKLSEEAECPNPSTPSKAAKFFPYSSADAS
# Assay Method Text: Kinase panel (mobility shift)
# Assay type: biochemical
# Test Conditions: at 5 um
Readout Name: inhibition of kinase activity, LOK

>>> endpoint_result("CNC(=O)c1cc(Oc2ccc(NC(=O)c3nc(C4CC4)oc3-c3ccc(F)cc3)cc2F)ccn1")
"C (C=80%-89% at 5 um)"
>>> endpoint_result("CNC(=O)c1cc(Oc2ccc(NC(=O)c3nc(OC)oc3-c3ccc(F)c(F)c3)cc2F)ccn1")
"C (C=80%-89% at 5 um)"
>>> endpoint_result("CNC(=O)c1cc(Oc2ccc(NC(=O)c3nc(SC)oc3-c3ccc(OC)cc3)cc2)ccn1")
"C (C=80%-89% at 5 um)"

###

For each of the compounds below, state its inhibition at 5 µM.
# Target Entity: EPH-A8 (Homo sapiens)
# Sequence (P29322 28-1005, species assumed): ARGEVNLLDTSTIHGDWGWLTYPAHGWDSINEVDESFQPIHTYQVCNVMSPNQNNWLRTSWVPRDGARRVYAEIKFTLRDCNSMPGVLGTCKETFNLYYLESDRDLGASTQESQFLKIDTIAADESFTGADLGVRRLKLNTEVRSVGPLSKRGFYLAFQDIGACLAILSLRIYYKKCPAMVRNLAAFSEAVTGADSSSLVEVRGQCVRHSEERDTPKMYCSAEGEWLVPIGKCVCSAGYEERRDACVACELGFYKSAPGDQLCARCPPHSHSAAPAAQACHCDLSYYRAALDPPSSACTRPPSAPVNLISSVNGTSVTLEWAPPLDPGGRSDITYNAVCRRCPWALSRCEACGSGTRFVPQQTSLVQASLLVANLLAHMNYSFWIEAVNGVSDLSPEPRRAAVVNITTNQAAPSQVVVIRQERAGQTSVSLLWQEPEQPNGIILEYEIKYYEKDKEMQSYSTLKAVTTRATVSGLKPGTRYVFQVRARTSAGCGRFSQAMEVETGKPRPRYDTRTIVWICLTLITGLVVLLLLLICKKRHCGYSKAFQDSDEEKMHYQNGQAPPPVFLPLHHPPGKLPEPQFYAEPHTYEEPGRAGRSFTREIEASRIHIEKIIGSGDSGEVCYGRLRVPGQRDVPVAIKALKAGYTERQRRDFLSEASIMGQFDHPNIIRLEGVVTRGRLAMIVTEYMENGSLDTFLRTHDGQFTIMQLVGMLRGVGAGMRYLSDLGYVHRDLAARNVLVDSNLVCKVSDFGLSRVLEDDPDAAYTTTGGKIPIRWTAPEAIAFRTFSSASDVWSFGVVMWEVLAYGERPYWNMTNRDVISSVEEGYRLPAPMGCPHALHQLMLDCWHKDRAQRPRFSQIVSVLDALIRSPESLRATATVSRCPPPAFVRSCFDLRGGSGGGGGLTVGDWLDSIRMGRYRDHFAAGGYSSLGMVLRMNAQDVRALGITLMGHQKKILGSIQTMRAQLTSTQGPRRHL
# Assay Method Text: Kinase panel (mobility shift)
# Type: biochemical

Examples with answers:
>>> endpoint_result("COc1nc(C(=O)Nc2ccc(Oc3ccnc(C(=O)NC4COC4)c3)c(F)c2)c(-c2ccc(F)cc2)o1")
"< 50%"
>>> endpoint_result("CNC(=O)c1cc(Oc2ccc(NC(=O)c3nc(COC)oc3-c3ccc(F)cc3)cc2F)ccn1")
"90 to 94%"
>>> endpoint_result("CNC(=O)c1cc(Oc2ccc(NC(=O)c3nc(C4CC4)oc3-c3ccc(F)cc3)cc2F)ccn1")
"80 to 89%"

// input: 6 compounds below; output: inhibition at 5 µM for each
1. [2H]C([2H])([2H])NC(=O)c1cc(Oc2ccc(NC(=O)c3nc(SC)oc3-c3ccc(F)s3)cc2F)ccn1
2. CNC(=O)c1ccc(Oc2ccc(NC(=O)c3nc(Cl)oc3-c3ccc(F)cc3)c(F)c2)cn1
3. CSc1nc(C(=O)Nc2ccc(Oc3ccnc(C(=O)NC4CNC4)c3)c(F)c2)c(-c2ccc(F)s2)o1
4. CNC(=O)c1cc(Oc2ccc(NC(=O)c3nc(SC)oc3-c3ccc(F)c(F)c3)cc2)ccn1
5. CNC(=O)c1cc(Oc2ccc(NC(=O)c3nc(SC)oc3-c3ccc(F)cc3F)cc2F)ccn1
6. CNC(=O)c1cc(Oc2c(F)cc(NC(=O)c3nc(NC)sc3-c3ccc(F)cc3)cc2F)ccn1

Response:
< 50%
< 50%
< 50%
50 to 79%
50 to 79%
50 to 79%

###

# Target Entity: KIT (Homo sapiens, UniProt P10721)
# Sequence (P10721 26-976, species assumed): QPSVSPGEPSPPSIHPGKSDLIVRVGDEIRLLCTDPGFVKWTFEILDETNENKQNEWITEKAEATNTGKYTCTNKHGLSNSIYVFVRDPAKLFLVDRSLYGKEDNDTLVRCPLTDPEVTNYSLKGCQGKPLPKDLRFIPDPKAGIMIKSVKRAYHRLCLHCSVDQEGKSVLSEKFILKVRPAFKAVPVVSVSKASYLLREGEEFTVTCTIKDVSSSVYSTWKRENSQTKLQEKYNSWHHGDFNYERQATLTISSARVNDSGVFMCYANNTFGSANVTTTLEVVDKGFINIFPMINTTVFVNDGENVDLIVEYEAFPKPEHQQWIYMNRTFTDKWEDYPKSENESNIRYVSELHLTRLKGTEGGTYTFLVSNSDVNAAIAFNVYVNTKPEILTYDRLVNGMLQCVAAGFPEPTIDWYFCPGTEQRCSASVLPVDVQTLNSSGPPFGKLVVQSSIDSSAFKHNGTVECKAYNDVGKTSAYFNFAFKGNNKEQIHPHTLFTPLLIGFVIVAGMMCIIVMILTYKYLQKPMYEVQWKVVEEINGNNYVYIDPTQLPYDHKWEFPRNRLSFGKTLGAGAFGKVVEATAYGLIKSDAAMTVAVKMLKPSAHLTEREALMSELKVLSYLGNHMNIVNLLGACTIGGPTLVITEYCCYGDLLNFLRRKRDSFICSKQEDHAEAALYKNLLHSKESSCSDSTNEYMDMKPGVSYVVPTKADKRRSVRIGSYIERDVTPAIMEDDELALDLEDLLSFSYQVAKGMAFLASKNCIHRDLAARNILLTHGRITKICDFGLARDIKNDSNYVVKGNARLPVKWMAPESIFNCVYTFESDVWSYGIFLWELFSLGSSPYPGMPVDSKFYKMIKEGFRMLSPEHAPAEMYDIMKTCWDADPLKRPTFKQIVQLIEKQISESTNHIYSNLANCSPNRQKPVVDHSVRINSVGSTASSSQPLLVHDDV
# Assay Method Text: Kinase panel (mobility shift)
# Assay type: biochemical
For each of the compounds below, state its inhibition at 5 µM.

Examples with answers:
>>> endpoint_result("CSc1nc(C(=O)Nc2ccc(Oc3ccnc(C(=O)NC4CNC4)c3)c(F)c2)c(-c2ccc(F)cc2)o1")
"< 50%"
>>> endpoint_result("CNC(=O)c1cc(Oc2ccc(NC(=O)c3nc(SC(C)C)oc3-c3ccc(F)cc3)cc2F)ccn1")
"50 to 79%"
>>> endpoint_result("CNC(=O)c1cc(Oc2c(F)cc(NC(=O)c3nc(NC)sc3-c3ccc(F)cc3)cc2F)ccn1")
"50 to 79%"
>>> endpoint_result("[2H]C([2H])([2H])NC(=O)c1cc(Oc2ccc(NC(=O)c3nc(SC)oc3-c3ccc(F)c(F)c3)cc2F)ccn1")
"< 50%"
>>> endpoint_result("CNC(=O)c1cc(Oc2ccc(NC(=O)c3nc(NC)oc3-c3ccc(F)s3)cc2F)ccn1")
"< 50%"
>>> endpoint_result("CSc1nc(C(=O)Nc2ccc(Oc3ccnc(C(=O)NCCN(C)C)c3)c(F)c2)c(-c2ccc(F)cc2)o1")
"< 50%"

Request: Please look at CSc1nc(C(=O)Nc2ccc(Oc3ccnc(C(=O)NC4COC4)c3)c(F)c2)c(-c2ccc(F)s2)o1 and tell me its recorded inhibition at 5 µM on KIT (Homo sapiens, UniProt P10721).
Response: < 50%
